# EXPERIMENTAL_TARGET: 5-HT1A receptor (Homo sapiens (Human), UniProt P08908)
# Sequence (P08908 whole entry): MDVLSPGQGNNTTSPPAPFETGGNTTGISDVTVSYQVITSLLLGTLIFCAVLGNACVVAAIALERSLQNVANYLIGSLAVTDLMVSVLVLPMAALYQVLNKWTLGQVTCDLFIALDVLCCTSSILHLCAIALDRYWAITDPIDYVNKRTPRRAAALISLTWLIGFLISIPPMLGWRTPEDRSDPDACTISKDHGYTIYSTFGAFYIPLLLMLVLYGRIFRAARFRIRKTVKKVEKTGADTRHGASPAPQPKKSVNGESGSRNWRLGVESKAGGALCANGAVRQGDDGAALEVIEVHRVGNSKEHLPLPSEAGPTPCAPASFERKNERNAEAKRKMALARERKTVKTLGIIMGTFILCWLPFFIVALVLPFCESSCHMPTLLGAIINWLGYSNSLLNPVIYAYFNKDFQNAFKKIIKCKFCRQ
# ASSAY_COMMENT: 5-HT1A receptor Gαi1 BRET (G protein trimer dissociation);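 note: cells transiently co-expressing 5-HT1A receptor, luciferase-tagged Gαi1, Gβ3 and GFP-tagged Gγ9, seeded in 96-well plates for BRET measurement of G protein signaling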
# Type: cell-based
PROPERTY_LABEL: pEC50
Give bare numbers, as −log10 of the molar value.

(Q) I'd like to know its pEC50. The molecule in question is OCCN1CCN2c3cccc4scc(c34)CC2C1 (stereo not shown)
(A) 4.62

---

Exercise: for every item that follows, state its recorded pKi.
# EXPERIMENTAL_TARGET: dopamine D2 receptors (Homo sapiens (Human), UniProt P14416)
# Sequence (P14416 whole entry): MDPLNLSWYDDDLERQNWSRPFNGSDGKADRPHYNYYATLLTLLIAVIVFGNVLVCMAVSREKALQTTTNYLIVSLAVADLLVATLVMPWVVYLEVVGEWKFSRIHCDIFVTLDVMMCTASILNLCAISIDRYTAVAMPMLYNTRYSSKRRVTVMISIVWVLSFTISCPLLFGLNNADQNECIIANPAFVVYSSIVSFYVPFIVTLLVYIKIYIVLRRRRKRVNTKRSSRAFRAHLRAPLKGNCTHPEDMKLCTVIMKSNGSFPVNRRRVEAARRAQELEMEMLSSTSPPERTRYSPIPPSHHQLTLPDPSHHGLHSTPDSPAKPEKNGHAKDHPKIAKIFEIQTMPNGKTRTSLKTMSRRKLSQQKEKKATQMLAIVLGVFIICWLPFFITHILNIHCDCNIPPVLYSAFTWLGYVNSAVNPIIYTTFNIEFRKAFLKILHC
# ASSAY_COMMENT: Affinity for dopamine D2 receptors, radioligand competition with [3H]-Methylspiperone
# EXPERIMENTAL_CONTEXT: 293T membrane transiently expressing D2
One number for each entry, as −log10 of the molar value.

>>> reported_result("O=C1c2ccccc2CCCN1CCCCN1CCN2c3cccc4scc(c34)CC2C1 (stereo not drawn)")
7.00

Hi, could you look up pKi for each item in my list?
1. c1csc(CCN2CCN3c4cccc5scc(c45)CC3C2)c1 (stereo not drawn)
2. O=C1CCc2ccc(OCCCCN3CCN4c5cccc6scc(c56)CC4C3)cc2N1 (stereo not drawn)
3. O=C1CCc2ccc(OCCCN3CCN4c5cccc6scc(c56)CC4C3)cc2N1 (stereo not drawn)
4. c1cc2c3c(csc3c1)CC1CN(CC3CC3)CCN21 (stereo not drawn)
5. O=C(CCCN1CCN2c3cccc4scc(c34)CC2C1)c1ccc(F)cc1 (stereo not drawn)
6. O=C(N[C@H]1CC[C@H](CCN2CCN3c4cccc5scc(c45)CC3C2)CC1)N1CCCC1 (stereo partly drawn)
7. O=C(N[C@H]1CC[C@H](CCN2CCN3c4cccc5scc(c45)CC3C2)CC1)N1CCCCC1 (stereo partly drawn)

(A)
[5.24, 7.52, 6.57, 6.49, 6.33, 7.10, 6.74]
